Source of measurements: patent US20240343814A1

tested-target: Recombinant human his-tagged IGF 1R extracellular domain protein (human) (UniProt P08069)
protocol-notes: SPR, captured IgG, IGF-1R ECD-his analyte, dissociation pH 7.4
Hi! Could you tag entries with kon below 100000 M⁻¹ s⁻¹ as Satisfied, and those at or above as Not satisfied? Much appreciated.

Would you please look over these solved cases?
VRDN-02503 (antibody, V domains shown) VH: EVQLVQSGGGLVKPGGSLRLSCAASGFHFSSFAMHWVRQAPGKGLEWISVIDTRGATYYADSVKGRFTISRDNAKNSLYLQMNSLRAEDTAVYYCARLGNFYYGMDVWGQGTTVTVSS VL: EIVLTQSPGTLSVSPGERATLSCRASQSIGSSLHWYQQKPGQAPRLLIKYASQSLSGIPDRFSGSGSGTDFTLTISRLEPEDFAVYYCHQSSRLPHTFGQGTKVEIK | Not satisfied
VRDN-02548 (antibody, V domains shown) VH: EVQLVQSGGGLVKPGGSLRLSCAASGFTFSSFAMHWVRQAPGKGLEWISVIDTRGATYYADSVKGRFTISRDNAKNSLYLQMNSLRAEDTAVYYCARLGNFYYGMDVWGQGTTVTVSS VL: EIVLTQSPGTLSVSPGERATLSCRASQSIGSSLHWYQQKPGQAPRLLIKYASQSLSGIPDRFSGSGSGTDFTLTISRLEPEDFAVYYCHQSHRLPHTFGQGTKVEIK | Not satisfied

stdin: For VRDN-02530 (antibody, V domains shown) VH: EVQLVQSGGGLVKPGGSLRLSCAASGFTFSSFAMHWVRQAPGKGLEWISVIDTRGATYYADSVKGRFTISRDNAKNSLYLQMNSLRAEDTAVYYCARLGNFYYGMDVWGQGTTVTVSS VL: EIVLTQSPGTLSVSPGERATLSCRAHQSIGSSLHWYQQKPGQAPRLLIKYASQSLSGIPDRFSGSGSGTDFTLTISRLEPEDFAVYYCHQSSRLPHTFGQGTKVEIK , is the recorded kon below the cut-off of 100000 M⁻¹ s⁻¹?
stdout: Not satisfied

stdin: For VRDN-02524 (antibody, V domains shown) VH: EVQLVQSGGGLVKPGGSLRLSCAASGFTFSSFAMHWVRQAPGKGLEWISVIDTRGATYYADSVKGRFTISRDNAKNSLYLQMNSLRAEDTAVYYCARLGNFYYHMDVWGQGTTVTVSS VL: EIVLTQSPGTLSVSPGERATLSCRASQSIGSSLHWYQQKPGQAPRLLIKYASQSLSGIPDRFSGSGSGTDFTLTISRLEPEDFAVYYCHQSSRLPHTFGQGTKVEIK , is the recorded kon below the cut-off of 100000 M⁻¹ s⁻¹?
stdout: Not satisfied

stdin: For VRDN-02501 (antibody, V domains shown) VH: EVQLVQSGGGLVKPGGSLRLSCAASHFTFSSFAMHWVRQAPGKGLEWISVIDTRGATYYADSVKGRFTISRDNAKNSLYLQMNSLRAEDTAVYYCARLGNFYYGMDVWGQGTTVTVSS VL: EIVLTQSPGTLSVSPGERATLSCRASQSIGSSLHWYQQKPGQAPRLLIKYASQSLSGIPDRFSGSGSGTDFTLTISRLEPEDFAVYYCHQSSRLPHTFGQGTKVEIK , is the recorded kon below the cut-off of 100000 M⁻¹ s⁻¹?
stdout: Not satisfied

stdin: For VRDN-02516 (antibody, V domains shown) VH: EVQLVQSGGGLVKPGGSLRLSCAASGFTFSSFAMHWVRQAPGKGLEWISVIDTRGATYYADSVKGRFTISRDNAKNSLYLQMNSLRAEDTAVYYCHRLGNFYYGMDVWGQGTTVTVSS VL: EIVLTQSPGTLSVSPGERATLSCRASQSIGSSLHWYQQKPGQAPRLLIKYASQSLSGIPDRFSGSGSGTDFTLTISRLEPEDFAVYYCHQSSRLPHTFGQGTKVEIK , is the recorded kon below the cut-off of 100000 M⁻¹ s⁻¹?
stdout: Not satisfied

stdin: For VRDN-02545 (antibody, V domains shown) VH: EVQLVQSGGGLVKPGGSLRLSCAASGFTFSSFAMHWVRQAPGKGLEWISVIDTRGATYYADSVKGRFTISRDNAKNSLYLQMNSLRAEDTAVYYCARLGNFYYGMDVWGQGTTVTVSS VL: EIVLTQSPGTLSVSPGERATLSCRASQSIGSSLHWYQQKPGQAPRLLIKYASQSLHGIPDRFSGSGSGTDFTLTISRLEPEDFAVYYCHQSSRLPHTFGQGTKVEIK , is the recorded kon below the cut-off of 100000 M⁻¹ s⁻¹?
stdout: Satisfied

stdin: For VRDN-02519 (antibody, V domains shown) VH: EVQLVQSGGGLVKPGGSLRLSCAASGFTFSSFAMHWVRQAPGKGLEWISVIDTRGATYYADSVKGRFTISRDNAKNSLYLQMNSLRAEDTAVYYCARLHNFYYGMDVWGQGTTVTVSS VL: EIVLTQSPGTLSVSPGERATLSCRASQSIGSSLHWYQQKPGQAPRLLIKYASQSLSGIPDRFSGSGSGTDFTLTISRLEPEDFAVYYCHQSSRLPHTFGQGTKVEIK , is the recorded kon below the cut-off of 100000 M⁻¹ s⁻¹?
stdout: Not satisfied

stdin: For VRDN-02525 (antibody, V domains shown) VH: EVQLVQSGGGLVKPGGSLRLSCAASGFTFSSFAMHWVRQAPGKGLEWISVIDTRGATYYADSVKGRFTISRDNAKNSLYLQMNSLRAEDTAVYYCARLGNFYYGHDVWGQGTTVTVSS VL: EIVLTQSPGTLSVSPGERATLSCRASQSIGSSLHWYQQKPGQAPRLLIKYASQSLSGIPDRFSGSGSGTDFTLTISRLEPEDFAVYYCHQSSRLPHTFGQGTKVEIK , is the recorded kon below the cut-off of 100000 M⁻¹ s⁻¹?
stdout: Not satisfied

stdin: For VRDN-02533 (antibody, V domains shown) VH: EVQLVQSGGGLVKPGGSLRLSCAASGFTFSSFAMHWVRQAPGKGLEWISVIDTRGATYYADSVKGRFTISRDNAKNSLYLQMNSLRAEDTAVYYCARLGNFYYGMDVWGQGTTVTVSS VL: EIVLTQSPGTLSVSPGERATLSCRASQSHGSSLHWYQQKPGQAPRLLIKYASQSLSGIPDRFSGSGSGTDFTLTISRLEPEDFAVYYCHQSSRLPHTFGQGTKVEIK , is the recorded kon below the cut-off of 100000 M⁻¹ s⁻¹?
stdout: Satisfied
